- protocol: compound effects on lung adenocarcinoma cell viability – A549, calcein-AM fluorescence, 48 h, basal, profiling panel (AID 1162); note: test concentration not given here
- reported.conditions: higher = more signal
Binary classification by z-score, with -0.6 as an inclusive lower bound for Criterion met; all other cases are Criterion not met.

**Q:** State whether the measured z-score reaches -0.6, counting equality as reaching it, for COC(=O)c1c(CC[C@@H](CO)NC(=O)N[C@@H](C)Cn2cc(C3(O)CCCC3)nn2)oc(C(C)=O)c1C(=O)OC
**A:** Criterion met

**Q:** State whether the measured z-score reaches -0.6, counting equality as reaching it, for O=C1c2ccccc2[C@](Cc2ccccc2I)(C(=O)NCC(F)(F)F)[C@H](c2ccc(CO)cc2)N1Cc1ccccc1
**A:** Criterion met

**Q:** State whether the measured z-score reaches -0.6, counting equality as reaching it, for C[C@]12C(=O)N(CCCO)[C@@H]3C(=O)N(c4ccc(Cl)cc4)CC=CC31O[C@@H]1/C=C\CCCOC(=O)C12 (stereo partly drawn)
**A:** Criterion met

**Q:** State whether the measured z-score reaches -0.6, counting equality as reaching it, for COC(=O)[C@H]1N=C(c2ccc(OCCCO)cc2)O[C@H]1c1ccccc1CN=[N+]=[N-]
**A:** Criterion met

**Q:** State whether the measured z-score reaches -0.6, counting equality as reaching it, for N#Cc1ccc(NN2C(C(O)c3ccccc3)C=CC3C(=O)N(c4ccccc4)C(=O)C32)cc1 (stereo not drawn)
**A:** Criterion not met

**Q:** State whether the measured z-score reaches -0.6, counting equality as reaching it, for O=C1NC(=O)C2C1C=CC(C(O)CCc1ccccc1)N2Nc1ccccn1 (stereo not drawn)
**A:** Criterion not met

**Q:** State whether the measured z-score reaches -0.6, counting equality as reaching it, for O=C(C=C(CC(O)c1cccc(Cl)c1)OCCF)OCCF (stereo not drawn)
**A:** Criterion met

====

- protocol: COS7 lysate on small-molecule microarray, probe aHis, 635 nm (AID 1123);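 note: z-score combines 667nm fluorescence intensity with signal-to-noise per printed compound spot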
- reported.conditions: COS7 cell lysate, fluorescence, higher = more signal
Binary classification by composite z-score, with 2 as an inclusive lower bound for yes; all other cases are no.

**Q:** State whether the measured composite z-score reaches 2, counting equality as reaching it, for [N-]=[N+]=NCc1ccccc1C[C@]1(C(=O)NCCN2CCOCC2)N=C(c2ccc(OCCCO)cc2)O[C@H]1c1ccccc1
**A:** no

**Q:** State whether the measured composite z-score reaches 2, counting equality as reaching it, for COc1ccccc1CN1C(=O)c2ccccc2[C@](Cc2ccccc2I)(C(=O)NCCN2CCOCC2)[C@@H]1c1ccc(CO)cc1
**A:** no

**Q:** State whether the measured composite z-score reaches 2, counting equality as reaching it, for CCCCC(=C=CC[C@H](O)c1cccc(OCCO)c1)C[C@H](O)COCc1ccccc1
**A:** no

**Q:** State whether the measured composite z-score reaches 2, counting equality as reaching it, for COCCOC(=O)N1C(=O)[C@@]2(c3cc(C#CCCO)ccc31)[C@H](C(=O)N1CCc3cc(OC)c(OC)cc3C1)[C@H]1C(=O)O[C@H](c3ccccc3)[C@H](c3ccccc3)N1[C@@H]2c1ccc(OCCO)cc1
**A:** no

**Q:** State whether the measured composite z-score reaches 2, counting equality as reaching it, for COc1cc2c(cc1OC)CN(C(=O)[C@@H]1[C@H]3C(=O)O[C@H](c4ccccc4)[C@H](c4ccccc4)N3[C@H](c3ccc(OCCO)cc3)[C@@]13C(=O)Nc1ccc(C#CCCO)cc13)CC2
**A:** yes

**Q:** State whether the measured composite z-score reaches 2, counting equality as reaching it, for COCCOC(=O)N1C(=O)[C@@]2(c3cc(C#Cc4ccc(OC)cc4)ccc31)[C@H](C(N)=O)[C@H]1C(=O)O[C@H](c3ccccc3)[C@H](c3ccccc3)N1[C@@H]2c1ccc(OCCO)cc1
**A:** no

**Q:** State whether the measured composite z-score reaches 2, counting equality as reaching it, for O=C1O[C@H](c2ccccc2)[C@H](c2ccccc2)N2[C@H]1[C@@H](C(=O)N1CCCCCCC1)[C@]1(C(=O)Nc3ccccc31)[C@H]2c1ccc(O)cc1
**A:** yes

**Q:** State whether the measured composite z-score reaches 2, counting equality as reaching it, for C[C@@]1([C@@H](NC(=O)c2cccs2)c2ccc(-c3ccccc3)cc2)C[C@H]1C1CCCCC1
**A:** yes

**Q:** State whether the measured composite z-score reaches 2, counting equality as reaching it, for CCOC(=O)C1=CC[C@@H](c2cccc(Br)c2)N(S(=O)(=O)c2ccc(C)cc2)[C@H]1c1ccc([N+](=O)[O-])cc1
**A:** yes

**Q:** State whether the measured composite z-score reaches 2, counting equality as reaching it, for COC(=O)[C@@]1(Cc2ccccc2)[C@H]2c3cc(C(=O)N4CCCC4)n(CCO)c3C[C@H]2CN1C(=O)c1ccccc1
**A:** yes

**Q:** State whether the measured composite z-score reaches 2, counting equality as reaching it, for [N-]=[N+]=Nc1ccccc1[C@@H]1OC(c2ccc(OCCCO)cc2)=N[C@]1(CCS(=O)(=O)c1ccccc1)C(=O)NCc1ccccc1
**A:** yes

**Q:** State whether the measured composite z-score reaches 2, counting equality as reaching it, for C=CC[C@@]1(C(=O)NCC(O)CO)N=C(c2ccc(OCCCO)cc2)O[C@@H]1c1ccccc1 (some centres undefined)
**A:** yes

**Q:** State whether the measured composite z-score reaches 2, counting equality as reaching it, for C[C@]12C(=O)N(CCCO)[C@@H]3C(=O)N(c4ccc(Cl)cc4)CC=CC31O[C@@H]1/C=C\CCCOC(=O)C12 (some centres undefined)
**A:** no

**Q:** State whether the measured composite z-score reaches 2, counting equality as reaching it, for COC(=O)[C@@]1(Cc2ccccc2N=[N+]=[N-])N=C(c2ccc(OCCCO)cc2)O[C@H]1c1ccccc1
**A:** no

**Q:** State whether the measured composite z-score reaches 2, counting equality as reaching it, for O=C1C[C@@](C(=O)O)(c2ccc([N+](=O)[O-])cc2)[C@@H](c2ccc(CO)cc2)N1CC12CC3CC(CC(C3)C1)C2
**A:** no

**Q:** State whether the measured composite z-score reaches 2, counting equality as reaching it, for CN(C)C(=O)[C@@]1(Cc2ccccc2N=[N+]=[N-])N=C(c2ccc(OCCCO)cc2)O[C@H]1c1ccccc1N=[N+]=[N-]
**A:** no

**Q:** State whether the measured composite z-score reaches 2, counting equality as reaching it, for CCCN1C(=O)[C@@]2(Cc3ccccc3)N=C(c3ccc(OCCCO)cc3)O[C@H]2c2ccccc21
**A:** yes

**Q:** State whether the measured composite z-score reaches 2, counting equality as reaching it, for COc1ccc(C(=O)Nc2ccc3c(c2)[C@]2(O[C@@H](CCO)[C@H]([Si](C)(C)c4ccc(OC)cc4)[C@H]2C)C(=O)N3Cc2ccccc2)cc1
**A:** no

**Q:** State whether the measured composite z-score reaches 2, counting equality as reaching it, for CN(C)C(=O)[C@@]1(CCS(=O)(=O)c2ccccc2)N=C(c2ccc(OCCCO)cc2)O[C@H]1c1ccccc1CN=[N+]=[N-]
**A:** yes

====

- protocol: small molecules captured by biotinylated probe aFGF2 – biochemical, small-molecule microarray, fluorescence 635/667, stem cell growth factor project, primary screen (AID 1067);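 note: measures binding of biotinylated aFGF2 protein to printed compounds on slides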
- reported.conditions: higher = more signal
Classify by composite z-score. Ranges: low end (below -0.07), middle (-0.07 to below 0.06), high end (0.06 or more)

**Q:** Class? Entry: COc1ccc(C#Cc2ccc3c(c2)[C@]2(C(=O)N3)[C@H](c3ccc(OCCO)cc3)N3[C@H](c4ccccc4)[C@H](c4ccccc4)OC(=O)[C@H]3[C@@H]2C(=O)N2CCN(c3ncccn3)CC2)cc1
**A:** low end

**Q:** Class? Entry: CC(C)C[C@@H]1NC(=O)[C@@]23C(=O)N[C@@H](Cc4ccccc4)C2[C@H](C)[C@@]2(C)O[C@H]2C3/C=C/C/C=C\CNC(=O)[C@@H]2CCCN2C1=O (stereo not given in full)
**A:** low end

**Q:** Class? Entry: NC(=O)[C@H]1[C@@H]2C(=O)O[C@@H](c3ccccc3)[C@@H](c3ccccc3)N2[C@@H](c2ccc(O)cc2)[C@]12C(=O)Nc1ccc(C#CC3(O)CCCCCC3)cc12
**A:** middle

**Q:** Class? Entry: CC(C)C[C@@H]1NC(=O)[C@@H]2C[C@H](C(=O)NCc3ccc(F)cc3)[C@H](c3ccc(O)cc3)N2C1=O
**A:** middle

**Q:** Class? Entry: CC(C)C(CO)N1C(=O)[C@@H]2[C@H]3C(=O)OCC=C[C@H]3OC23C=CCN(CCN2CCOCC2)C(=O)[C@@H]13 (stereo not given in full)
**A:** low end

**Q:** Class? Entry: COc1cc(C(O)C2C=CC3C(=O)N(C)C(=O)C3N2NC(=O)OC(C)(C)C)cc(OC)c1OC (stereo not given)
**A:** high end

**Q:** Class? Entry: Cc1cc(C)c(C(O)C2C=CC3C(=O)N(c4ccccc4)C(=O)C3N2Nc2ccccc2)c(C)c1 (stereo not given)
**A:** high end

**Q:** Class? Entry: CC(C)=CCCC(C)=CC(O)C1C=CC2C(=O)N(c3ccccc3)C(=O)C2N1Nc1ccc([N+](=O)[O-])cc1 (stereo not given)
**A:** middle

**Q:** Class? Entry: O=C1OCCC=C[C@H]2OC34C=CCN(Cn5nnc6ccccc65)C(=O)[C@H]3N(CCCCCO)C(=O)[C@@H]4C12 (stereo not given in full)
**A:** low end

**Q:** Class? Entry: C#CCOC(=O)N[C@H](C=CCCCC)c1ccccc1
**A:** high end

**Q:** Class? Entry: COC(=O)[C@@]1(Cc2ccc(OC)cc2)[C@H]2c3cc(C(=O)N(C)C)n(Cc4cc(C)n(C)n4)c3C[C@H]2CN1C(=O)c1ccccc1
**A:** high end

**Q:** Class? Entry: CCOC(=O)C1=CCC(c2cccc(Cl)c2)O1 (stereo not given)
**A:** middle

**Q:** Class? Entry: COC(=O)[C@@]1(Cc2ccc(F)cc2)[C@H]2c3cc(C(=O)N4CCCC4)n(Cc4ccccc4)c3C[C@H]2CN1C(=O)c1ccccc1
**A:** middle
